test system: SW-620; assay: NCI tumour cell line growth inhibition, 48 h
Calls of active or inactive are those of the source. No stated cut-off is given here; in the data, active = GI50 up to about 1.1 µM and inactive = higher.
// GI50 lookup, one value per entry

S=P1(Sc2ccccc2)Oc2ccc3ccccc3c2-c2c(ccc3ccccc23)O1 : > 100 µM (inactive)

Give the measured GI50 for NC(=O)SCCC(N)C(=O)O (stereo unspecified) > 100 µM (inactive)

Give the measured GI50 for COC(=O)c1cc2c3c(c1)Oc1cc(C(=O)OC)cc4c1C3c1c(cc(C(=O)OC)cc1O4)O2 35 µM (inactive)

Give the measured GI50 for C/C(CC(=O)Nc1ccccc1C)=N/NS(=O)(=O)c1ccc(C)cc1 > 100 µM (inactive)

Give the measured GI50 for COc1ccc(/N=N/c2c(-c3ccccc3)nn(C(=O)CC(=O)Nc3ccc(OC)cc3)c2-c2ccccc2)cc1 > 100 µM (inactive)

Give the measured GI50 for COc1cc2c3c(cc(Cl)nc3c1OC)C(O)(CC(=O)c1ccccc1)C(=O)N2 (stereo unspecified) 4 µM (inactive)

Give the measured GI50 for CC1=C(C(=O)Nc2cc(=O)n(C)c(=O)n2C)C(c2cccc([N+](=O)[O-])c2)C(C(=O)Nc2cc(=O)n(C)c(=O)n2C)=C(C)N1 > 100 µM (inactive)

Give the measured GI50 for Nc1nc2c(c(-c3ccc(F)cc3)n1)COC/C2=C\c1ccc(F)cc1 > 100 µM (inactive)

Give the measured GI50 for COc1ccc(C(CC2(c3ccc(OC)cc3)SCCCS2)NC(C)=O)cc1 (stereo unspecified) 47.8 µM (inactive)

Give the measured GI50 for COc1ccc(C2=C(N)c3ccccc3C2=O)cc1 > 100 µM (inactive)

Give the measured GI50 for COCNC(=NC#N)NCOC > 42.9 µM (inactive)

Give the measured GI50 for Cc1ccc2c(n1)C(=O)c1cc(C)c(C)cc1C2=O 73.6 µM (inactive)

Give the measured GI50 for CCCCCCCCNC(=O)C1=C(C)NC(C)=C(C(=O)NCCCCCCCC)C1 > 100 µM (inactive)

Give the measured GI50 for CCc1ccc(CCN2CCCCC2)nc1 > 100 µM (inactive)

Give the measured GI50 for Nc1nc2c(c(-c3ccccc3Cl)n1)COC/C2=C\c1ccccc1Cl 16.6 µM (inactive)

Give the measured GI50 for COC(C/C(=C/CO[Si](C(C)C)(C(C)C)C(C)C)C(=O)Nc1ccccc1I)OC 45.4 µM (inactive)

Give the measured GI50 for C=C1C(O)C2(O)OCC34C(CC5C(C)=CC(=O)C(O)C5(C)C23)OC(=O)C(OC(=O)C/C=C(\C)CCCCC)C14 (stereo unspecified) 0.0153 µM (active)

Where these numbers come from: ChEMBL document CHEMBL1201862
